These entries and their values trace back to ChEMBL document CHEMBL1125102.

Exercise: for every item that follows, state its recorded pIC50.
measured.target: Tubulin
test.summary: Inhibition of tubulin polymerization
pIC50: −log10 of the molar value.

Entry COc1ccc2c(O)nc(/C=C/c3ccccc3)nc2c1 — recorded pIC50 = 5.24

Entry Nc1ccc2nc(/C=C/c3ccccc3)nc(O)c2c1 — recorded pIC50 = < 4.40

Entry Oc1nc(/C=C/c2ccccc2)nc2cc(N3CCCCC3)c(F)cc12 — recorded pIC50 = < 4.40

Entry Oc1nc(CC(c2ccccc2)N2CCOCC2)nc2ccc(Cl)cc12 (configuration not stated) — recorded pIC50 = < 4.40

Entry Cn1c(/C=C/c2ccccc2)nc(=O)c2cc(Cl)ccc21 — recorded pIC50 = < 4.40

Entry Oc1nc(CCc2ccccc2)nc2ccc(Cl)cc12 — recorded pIC50 = 5.14

Entry Oc1ccc2nc(/C=C/c3ccccc3)nc(O)c2c1 — recorded pIC50 = < 4.40

Entry Oc1nc(/C=C/c2ccccc2)nc2cc(Cl)ccc12 — recorded pIC50 = 4.77

Entry C/C=C/c1nc(O)c2ccccc2n1 — recorded pIC50 = < 4.40

Entry Oc1nc(/C=C/c2ccccc2)nc2ccc(F)cc12 — recorded pIC50 = 5.27

Entry Nn1c(/C=C/c2ccccc2)nc2ccc(Cl)cc2c1=O — recorded pIC50 = < 4.40

Entry Nc1ccccc1C(=O)Oc1ccc2nc(/C=C/c3ccccc3)nc(O)c2c1 — recorded pIC50 = < 4.40
